Let's look at some molecules and their measured pIC50.
Biological target: AT2R (Homo sapiens)
Sequence (P50052 1-363): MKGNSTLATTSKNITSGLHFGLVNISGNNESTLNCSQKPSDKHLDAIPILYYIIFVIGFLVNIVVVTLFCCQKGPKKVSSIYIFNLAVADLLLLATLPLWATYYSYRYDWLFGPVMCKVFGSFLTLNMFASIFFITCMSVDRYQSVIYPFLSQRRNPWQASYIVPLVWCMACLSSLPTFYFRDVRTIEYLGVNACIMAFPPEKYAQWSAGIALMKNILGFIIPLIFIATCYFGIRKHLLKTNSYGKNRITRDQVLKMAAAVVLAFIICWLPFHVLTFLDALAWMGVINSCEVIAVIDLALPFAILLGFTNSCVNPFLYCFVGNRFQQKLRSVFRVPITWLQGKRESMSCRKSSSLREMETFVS
Units for pIC50: none; it is -log10 of a concentration expressed in mol/L.

> print(dat)
                                entry.smiles  metric  value.measured
 1  Cc1c(CC(C)C)sc(S(=O)(=O)NC(=O)NCc2ccccn2)c1-c1ccc(Cn2ccnc2C(F)(F)F)cc1   pIC50            8.36
 2  COC(=O)NS(=O)(=O)c1sc(CC(C)C)c(C)c1-c1ccc(Cn2ccnc2C(F)(F)F)cc1   pIC50            8.29
 3  Cc1c(CC(C)C)sc(S(=O)(=O)Nc2ncccn2)c1-c1ccc(Cn2ccnc2Cl)cc1   pIC50            8.75
 4  Cc1c(CC(C)C)sc(S(=O)(=O)NC(=O)OC[C@@H](C)O)c1-c1ccc(Cn2ccnc2C(F)(F)F)cc1   pIC50            8.41
 5  Cc1c(CC(C)C)sc(S(=O)(=O)NC(=O)OCCO)c1-c1ccc(Cn2ccnc2Cl)cc1   pIC50            8.45
 6  COC(=O)NS(=O)(=O)c1sc(CC(C)C)c(C)c1-c1ccc(Cn2ccnc2Cl)c(F)c1   pIC50            8.86
 7  COC(=O)NS(=O)(=O)c1sc(CC(C)C)c(F)c1-c1ccc(Cn2ccnc2C(F)(F)F)cc1   pIC50            8.18
 8  Cc1c(CC(C)C)sc(S(=O)(=O)NC(=O)OC[C@@H](C)O)c1-c1ccc(Cn2ccnc2Cl)cc1   pIC50            8.41
 9  Cc1c(CC(C)C)sc(S(=O)(=O)NC(=O)OCCO)c1-c1ccc(Cn2ccnc2C(F)(F)F)cc1   pIC50            8.59
10  Cc1c(CC(C)C)sc(S(=O)(=O)NC(=O)OCC(C)(C)O)c1-c1ccc(Cn2ccnc2C(F)(F)F)cc1   pIC50            8.64

(Q) What does the data say about its pIC50? Entry: CCCCOC(=O)NS(=O)(=O)c1sc(CC(C)C)c(F)c1-c1ccc(Cn2ccnc2C(C)(C)O)cc1
(A) 8.49

(Q) What does the data say about its pIC50? Entry: COC(=O)NS(=O)(=O)c1sc(CC(C)C)c(C)c1-c1ccc(Cn2ccnc2C(C)(C)O)cc1
(A) 8.54
